For each of the compounds below, state its EC50.
# study_target: 229E Mpro (Human coronavirus 229E (HCoV-229E))
# procedure_details: 229E Mpro activity
# Type: biochemical
# applied_conditions: read-out: 229E Mpro EC50

compound: COc1cccc2[nH]c(C(=O)N[C@@H](CC(C)C)C(=O)N[C@@H](C[C@@H]3CCNC3=O)C3OC(=O)N(C(C)C)C3=N)cc12 (stereo partly drawn)
study_target: 229E Mpro (Human coronavirus 229E (HCoV-229E))
EC50: > 30 µM

compound: COc1cccc2[nH]c(C(=O)N[C@@H](CC3CC3)C(=O)N[C@](C)(C#N)CC3CCNC3=O)cc12 (single isomer, unassigned) [1055 (Isomer 1)]
study_target: 229E Mpro (Human coronavirus 229E (HCoV-229E))
EC50: > 30 µM

compound: CC(C)(C)OC(=O)N1CCCCC12CCN(C(CC1CC1)C(=O)N[C@H](C#N)C[C@@H]1CCNC1=O)C2=O (single isomer, unassigned) [473 (Isomer 2)]
study_target: 229E Mpro (Human coronavirus 229E (HCoV-229E))
EC50: > 30 µM

Here are 6 compounds. What values of EC50 were reported for them?
1. COc1cccc2[nH]c(C(=O)N[C@@H](CC(C)(C)C)C(=O)N[C@H](C#N)C[C@@H]3CCCNC3=O)cc12
2. N#C[C@H](C[C@@H]1CCCNC1=O)NC(=O)[C@H](CC1CC1)NC(=O)c1cc2c(Cl)cccc2[nH]1
3. COc1cccc2[nH]c(C(=O)N3CC(C45CC(C4)C5)C[C@H]3C(=O)N[C@H](C#N)C[C@@H]3CCNC3=O)cc12 (single isomer, unassigned) [385 (Isomer 1)]
4. CC1(C)CC(C[C@@H](C#N)NC(=O)[C@H](CC2CC2)NC(=O)c2cc3cccc(Cl)c3[nH]2)C(=O)N1 (single isomer, unassigned) [1053 (Isomer 1)]
5. N#C[C@H](C[C@@H]1CCNC1=O)NC(=O)[C@H](CC1CC1)n1ccc2[nH]cnc2c1=O
6. COc1cc(Cl)cc2[nH]c(C(=O)N3CC4(CCCCC4)CC3C(=O)N[C@H](C#N)C[C@@H]3CCCNC3=O)cc12 (single isomer, unassigned) [908 (Isomer 2)]

**Result**
1. < 2 µM
2. < 2 µM
3. < 2 µM
4. > 30 µM
5. > 30 µM
6. 2 to 10 µM

====

# study_target: 229E Mpro (Human coronavirus 229E (HCoV-229E), UniProt P0C6X1)
# Sequence (P0C6X1 2966-3267 limits assumed): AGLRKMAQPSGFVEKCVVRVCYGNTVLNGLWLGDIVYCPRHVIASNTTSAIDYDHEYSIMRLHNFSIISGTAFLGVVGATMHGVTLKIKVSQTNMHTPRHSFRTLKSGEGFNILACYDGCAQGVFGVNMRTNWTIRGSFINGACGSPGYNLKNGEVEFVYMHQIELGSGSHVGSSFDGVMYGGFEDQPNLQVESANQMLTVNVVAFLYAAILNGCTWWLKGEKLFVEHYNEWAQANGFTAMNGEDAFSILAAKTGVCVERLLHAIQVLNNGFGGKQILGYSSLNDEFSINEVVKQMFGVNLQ
# procedure_details: 229E Mpro activity
# Format: biochemical
# applied_conditions: read-out: 229E Mpro EC50
For each of the molecules below, state its EC50.

// known answers, use as guide
molecule: N#C[C@H](C[C@@H]1CCCNC1=O)NC(=O)[C@H](CC1CC1)NC(=O)c1cc2cc(F)cc(Br)c2[nH]1
study_target: 229E Mpro (Human coronavirus 229E (HCoV-229E), UniProt P0C6X1)
value_observed: < 2 µM

molecule: COc1ccc2[nH]c(C(=O)N3CC4(CCC4)CC3C(=O)N[C@H](C#N)C[C@@H]3CCNC3=O)cc2c1Cl (single isomer, unassigned) [886 (Isomer 1)]
study_target: 229E Mpro (Human coronavirus 229E (HCoV-229E), UniProt P0C6X1)
value_observed: > 30 µM

Here are 4 molecules. What values of EC50 were reported for them?
1. N#C[C@H](C[C@@H]1CCCNC1=O)NC(=O)[C@H](CC1CC1)NC(=O)c1cc2cc(Cl)cc(Cl)c2[nH]1
2. COc1cccc2[nH]c(C(=O)N3CC(C45CC(C4)C5)C[C@H]3C(=O)N[C@H](C#N)C[C@@H]3CCNC3=O)cc12 (single isomer, unassigned) [385 (Isomer 2)]
3. N#C[C@H](C[C@@H]1CCCNC1=O)NC(=O)C1CC2(CCC2)CN1C(=O)c1cc2c(Cl)cccc2[nH]1 (single isomer, unassigned) [803 (Isomer 1)]
4. COc1cccc2[nH]c(C(=O)N3Cc4ccccc4C3C(=O)N[C@H](C#N)C[C@@H]3CCNC3=O)cc12 (single isomer, unassigned) [429A (Isomer 1)]

**Result**
1: < 2 µM; 2: < 2 µM; 3: > 30 µM; 4: > 30 µM

====

# study_target: 229E Mpro (Human coronavirus 229E (HCoV-229E))
# procedure_details: 229E Mpro activity
# Type: biochemical
# applied_conditions: 229E Mpro EC50
pEC50: −log10 of the molar value.
For each of the compounds below, state its pEC50.

compound: COCCOCCOc1cccc2[nH]c(C(=O)NC(CC(C)(C)C)C(=O)NC(C#N)CC3CCCNC3=O)cc12 (single isomer, unassigned) [875 (Isomer 2)]
pEC50: > 5.70

compound: N#C[C@H](C[C@@H]1CCCNC1=O)NC(=O)C1CC2(CN1C(=O)c1cc3cccc(Cl)c3[nH]1)CC(F)(F)C2 (single isomer, unassigned) [743 (Isomer 1)]
pEC50: < 4.52

compound: COc1cccc2[nH]c(C(=O)N3CC4(CC3C(=O)N[C@H](C#N)C[C@@H]3CCCNC3=O)CC(F)(F)C4)cc12 (single isomer, unassigned) [723 (Isomer 1)]
pEC50: 4.52 to 5.00

compound: COc1cccc2[nH]c(C(=O)N[C@H](CC(C)C)C(=O)N[C@@H](CC3CCNC3=O)C(=O)CO)cc12 (some centres unmarked)
pEC50: 4.52 to 5.00

Value of measured pEC50 for the entry CC1(C)CCC(C[C@@H](C#N)NC(=O)[C@H](CC2CC2)NC(=O)c2cc3cccc(Cl)c3[nH]2)C(=O)N1 (single isomer, unassigned) [Compound 749 (Isomer 1)] : 5.00 to 5.70

====

For each of the compounds below, state its pEC50.
# study_target: 229E Mpro (Human coronavirus 229E (HCoV-229E))
# procedure_details: 229E Mpro activity
# Type: biochemical
# applied_conditions: read-out: 229E Mpro EC50
pEC50: −log10 of the molar value.

// known answers, use as guide
compound: CC(C)C[C@H](NC(=O)CC(C)(O)c1ccc(Cl)cc1)C(=O)N[C@H](C#N)C[C@@H]1CCNC1=O (single isomer, unassigned) [365 (Isomer 1)]
pEC50: 5.00 to 5.70
//
compound: COc1cccc2[nH]c(C(=O)N3C[C@H](c4ccccc4)C[C@H]3C(=O)N[C@@H](C[C@@H]3CCNC3=O)C(O)C#N)cc12 (single isomer, unassigned) [345 (Isomer 1)]
pEC50: > 5.70
//
compound: COc1cccc2[nH]c(C(=O)N3CC4(CCC4)CC3C(=O)N[C@H](C#N)C[C@@H]3CCCNC3=O)cc12 (single isomer, unassigned) [719A (Isomer 1)]
pEC50: 4.52 to 5.00
//
compound: COC(=O)NS(=O)(=O)n1nccc1C(=O)N[C@@H](CC1CC1)C(=O)N[C@H](C#N)C[C@@H]1CCCNC1=O
pEC50: 5.00 to 5.70
//
compound: N#C[C@H](C[C@@H]1CCNC1=O)NC(=O)[C@@H]1CS[C@H]2CC[C@H](N)C(=O)N21
pEC50: 4.52 to 5.00

Here are 6 compounds. What values of pEC50 were reported for them?
1. N#C[C@H](C[C@@H]1CCNC1=O)NC(=O)C1CC2(CCC2)CN1C(=O)c1cc2cccc(Cl)c2[nH]1 (single isomer, unassigned) [988 (Isomer 1)]
2. COc1ccc(Cl)c2[nH]c(C(=O)N3CC4(CCCCC4)CC3C(=O)N[C@H](C#N)C[C@@H]3CCNC3=O)cc12 (single isomer, unassigned) [882 (Isomer 2)]
3. COc1cccc2[nH]c(C(=O)N3NCCC[C@H]3C(=O)N[C@H](C#N)C[C@@H]3CCNC3=O)cc12
4. COc1cccc2[nH]c(C(=O)N3CC4(CCCCC4)CC3C(=O)N[C@H](C#N)CC3CCC(C)(C)NC3=O)cc12 (single isomer, unassigned) [1111 (Isomer 1)]
5. COc1ccc(Cl)c2[nH]c(C(=O)N3CC4(CCCCC4)CC3C(=O)N[C@H](C#N)C[C@@H]3CCNC3=O)cc12 (single isomer, unassigned) [882 (Isomer 1)]
6. N#C[C@H](C[C@@H]1CCNC1=O)NC(=O)[C@@H]1CS[C@H]2CC[C@H](NC(=O)OCc3ccccc3)C(=O)N21

**Result**
1. < 4.52
2. 4.52 to 5.00
3. < 4.52
4. 5.00 to 5.70
5. > 5.70
6. < 4.52

Here are 8 compounds. What values of pEC50 were reported for them?
1. N#C[C@H](C[C@@H]1CCNC1=O)NC(=O)[C@@H]1CCCNN1C(=O)/C=C/c1ccc(Cl)cc1F
2. COc1ccc(Cl)c2[nH]c(C(=O)N3CC4(CCC4)CC3C(=O)N[C@H](C#N)C[C@@H]3CCNC3=O)cc12 (single isomer, unassigned) [992 (Isomer 1)]
3. COc1cccc2[nH]c(C(=O)N[C@@H](CC(C)C)C(=O)N[C@H](/C=C/S(C)(=O)=O)C[C@@H]3CCNC3=O)cc12
4. CN1CCCC[C@]12CCN([C@@H](CC1CC1)C(=O)N[C@H](C#N)C[C@@H]1CCNC1=O)C2=O [Compound 273C]
5. COc1cccc2[nH]c(C(=O)N[C@@H](CC(C)C)C(=O)N[C@@H](C[C@@H]3CCNC3=O)C(C#N)NCC(=O)O)cc12 (single isomer, unassigned) [653 (Isomer 1)]
6. CCNC(C#N)[C@H](C[C@@H]1CCNC1=O)NC(=O)[C@H](CC(C)C)NC(=O)c1cc2c(OC)cccc2[nH]1 (single isomer, unassigned) [511 (Isomer 1)]
7. COc1cccc2[nH]c(C(=O)N[C@@H](CC3CCC3)C(=O)N[C@H](C#N)C[C@@H]3CCNC3=O)cc12
8. COc1cccc2[nH]c(C(=O)N[C@@H](CC3CC3)C(=O)N[C@@]3(C#N)C[C@H]4CC[C@@H]3[C@H]3C(=O)NC(=O)[C@@H]43)cc12 (single isomer, unassigned) [489 (Isomer 1)]

**Result**
1. < 4.52
2. > 5.70
3. > 5.70
4. 5.00 to 5.70
5. > 5.70
6. > 5.70
7. > 5.70
8. < 4.52

Here are 4 compounds. What values of pEC50 were reported for them?
1. COc1cc(Cl)c2[nH]c(C(=O)N[C@@H](CC3CC3)C(=O)N[C@H](C#N)C[C@@H]3CCNC3=O)cc2c1
2. COc1cccc2[nH]c(C(=O)N[C@@H](CC(C)C)C(=O)N[C@@H](CC3CCNC3=O)C(C#N)NCc3ccccc3)cc12 (single isomer, unassigned) [507 (Isomer 2.1)]
3. N#C[C@H](C[C@@H]1CCNC1=O)NC(=O)[C@@H](CC1CC1)N1CCc2cc[nH]c2C1=O [Compound 267A]
4. COc1cccc2[nH]c(C(=O)N[C@@H](CC(C)C)C(=O)N[C@@H](C[C@@H]3CCNC3=O)C(C#N)N3CCCC3)cc12 (single isomer, unassigned) [331 (Isomer 1)]

**Result**
1. > 5.70
2. > 5.70
3. < 4.52
4. > 5.70
